Tested on: NCI-H460 lung
Returns: one label drawn from Y for active, N for inactive

Molecule: COc1ccc2cnc(N)c(C#Cc3cc(C(=O)Nc4ccc(CN5CCN(C)CC5)c(C(F)(F)F)c4)cnc3C)c2c1
Class name: N

What outcome does the record of this test show for `COc1ccc2c3c([nH]c2c1)C(=O)c1nc(C)ccc1C3=O` ?
N

What outcome does the record of this test show for `N#C/C(=C\c1ccc2c(c1)OCO2)n1nnc2ccccc21` ?
N

What outcome does the record of this test show for CCn1cc(C2NC(=O)c3ccccc3N2)c2cccc(C)c21 (stereo not given) ?
Y

What outcome does the record of this test show for `CC(C)c1ccc(COCc2cc(CN3CCCC3)c(O)c3ncccc23)cc1` ?
Y

What outcome does the record of this test show for `O=S(=O)(Nc1cccc(Cl)c1)c1ccc(-c2cnc(C3CC3)o2)cc1` ?
N

What outcome does the record of this test show for `COc1cc(O)c2c3c(ccnc13)-c1ccccc1N2` ?
N

What outcome does the record of this test show for `O=C1Nc2ccccc2/C1=C/C(=N/c1nnc(-c2ccc(Cl)cc2)s1)c1ccccc1` ?
N

What outcome does the record of this test show for `Cc1cc2nc(CS)[nH]c2cc1C` ?
N

What outcome does the record of this test show for CC(=O)Oc1cn(-c2ccc(Cl)cc2)nc1C1=NN(C(C)=O)C(c2ccc(F)cc2F)O1 (stereo not given) ?
N

###

Test system: T-47D breast
Test summary: NCI tumour cell line growth inhibition, 48 h
Where a SMILES comes first, the peptide text is derived from it. [ ]: non-standard residue; d: D form. The star is where a group is joined. Chg = N[CH](C(=O)O)C1CCCCC1; Cbz = O=C(OCc1ccccc1)*; OBn = c1ccc(CO*)cc1
Quantity measured: TGI

Some entries whose results are on file:
Molecule: Cc1ccc(NN=NCCCCN=NNc2ccc(C)cc2)cc1
Tgt: T-47D breast
TGI: > 100 µM

Molecule: COc1ccccc1NC(=O)c1ccc(NC2=C(Cl)C(=O)N(Cc3ccccc3)C2=O)cc1
Tgt: T-47D breast
TGI: > 100 µM

Molecule: CCOC(=O)C(=CNC(=S)c1ccncc1)C(=O)OCC
Tgt: T-47D breast
TGI: > 100 µM

Molecule: COc1ccc2c(c1)C(=Nc1ccc(F)c(F)c1F)c1c-2c(Nc2ccc(F)c(F)c2F)nc2ccccc12
Tgt: T-47D breast
TGI: > 100 µM

Molecule: O=C1/C(=C\c2cccc(Oc3ccccc3)c2)S(=O)(=O)C(c2ccccc2)N1c1cc(Cl)ccc1Cl (configuration not stated)
Tgt: T-47D breast
TGI: 82.4 µM

Molecule: CN(C)c1ccc2nc3ccc(=[N+](C)C)c([N+](=O)[O-])c-3sc2c1
Tgt: T-47D breast
TGI: 7.47 µM

Which TGI is reported for this molecule? `C=C1CC[C@@H]2C(C)(C)[C@H](O)CC[C@@]2(C)[C@@H]1COc1ccc2ccc(=O)oc2c1`
64.1 µM

Which TGI is reported for this molecule? `Cc1nc2ccccc2c(=O)n1NC(=O)c1ccc(N)cc1`
> 100 µM

Which TGI is reported for this molecule? CC(=O)c1c(-c2ccc(Cl)cc2)c(C#N)c(=S)n(C2OC(CO)C(O)C(O)C2O)c1-c1ccccc1 (configuration not stated)
> 100 µM

Which TGI is reported for this molecule? `O=C(NCCCCN(CCCNC(=O)C(F)(F)F)Cc1ccccc1)C(F)(F)F`
> 100 µM

Which TGI is reported for this molecule? O=C1C2=Cc3ccccc3OC2(O)Oc2cc(O)cc(O)c21 (configuration not stated)
> 100 µM

Which TGI is reported for this molecule? CC(=O)OCC1OC(n2c(C)c(C(C)=O)c(-c3ccc(Cl)cc3)c(C#N)c2=S)C(OC(C)=O)C(OC(C)=O)C1OC(C)=O (configuration not stated)
> 100 µM

Which TGI is reported for this molecule? `O=C(C(Cl)Cl)N(O)c1ccccc1OCc1ccccc1`
51.8 µM

Which TGI is reported for this molecule? COC(=O)C(NC(=O)C(CC(=O)OCc1ccccc1)NC(=O)OCc1ccccc1)C1CCCCC1 (configuration not stated) (Cbz-Asp(OBn)-[Chg]-OMe; configuration not given here)
> 100 µM

Which TGI is reported for this molecule? O=C(O)C1Cc2c([nH]c3ccccc23)C(CCCCO)N1 (configuration not stated)
> 100 µM

Which TGI is reported for this molecule? `COc1ccc(-n2cnc3c(N)nc(N)nc32)cc1`
> 100 µM

Which TGI is reported for this molecule? NCCN1C(=O)c2cc(Cl)c(Cl)cc2C1(O)c1ccc(Cl)cc1 (configuration not stated)
4.55 µM

Which TGI is reported for this molecule? `CC(C)Cn1cnc2c(Sc3c([N+](=O)[O-])ncn3C)nc(N)nc21`
> 100 µM

Which TGI is reported for this molecule? `COc1ccc(-c2cc(-c3ccccc3)nc(N)c2-c2ccc3ccccc3c2)cc1`
3.38 µM

Which TGI is reported for this molecule? `COc1ccc2c(N=[N+]=[N-])c(-c3ccccc3)c(=O)oc2c1`
> 100 µM

Which TGI is reported for this molecule? `O=C(Cn1nnc(-c2ccccc2)n1)N/N=C/c1cn(Cc2ccc(Cl)cc2Cl)c2ccccc12`
> 100 µM

Which TGI is reported for this molecule? `CCCCCOc1ccc(Nc2c(O)c3c(c(O)c2Cl)C(=O)C=CC3=O)cc1`
> 9.64 µM

###

Tested on: NCI-H522 lung
Test summary: NCI tumour cell line growth inhibition, 48 h
Quantity measured: TGI (µM)
Number in µM, nothing else.

Some entries whose results are on file:
Molecule: COc1ccc2cnc(N)c(C#Cc3cc(C(=O)Nc4ccc(CN5CCN(C)CC5)c(C(F)(F)F)c4)cnc3C)c2c1
Quantity measured: TGI
Unit name: µM
Assay result: 32.9
//
Molecule: CN(C)C(=S)NC(=S)Nc1ccc2ccccc2c1
Quantity measured: TGI
Unit name: µM
Assay result: 32

Which TGI is reported for this molecule? C=C[C@]1(C)CC(O)C2C(=C)C(=O)OC2[C@H]1C(=C)C=O (stereo not given in full)
2.35

Which TGI is reported for this molecule? `CC[C@H](C)[C@H](NC(=O)C12CC(NC)(C1)C2)C(=O)N(C)[C@H](C[C@@H](OC(C)=O)c1nc(C(=O)N[C@@H](Cc2ccccc2)C[C@H](C)C(=O)OC)cs1)C(C)C`
0.368

Which TGI is reported for this molecule? `O=C1/C(=C/c2ccc(Cl)cc2Cl)CN(S(=O)(=O)c2ccccc2)C/C1=C\c1ccc(Cl)cc1Cl`
3.93

Which TGI is reported for this molecule? `Cn1cc(NC(=O)c2cc(NC(=O)CCCCCCCCC(=O)Nc3cc(C(=O)Nc4cc(C(=O)NCCC(N)N)n(C)c4)n(C)c3)cn2C)cc1C(=O)NCCC(=N)N`
79.2

Which TGI is reported for this molecule? `COP(=O)(OC)/C(=C\C1=CN(C(c2ccccc2)(c2ccccc2)c2ccccc2)CN1)NC=O`
33.5

Which TGI is reported for this molecule? `Clc1ccc(OCc2nnc3n2N=C(c2ccccc2)CS3)cc1`
36.5

Which TGI is reported for this molecule? `Oc1ccc(-c2nc3ccc(F)cc3s2)cc1`
26.9

Which TGI is reported for this molecule? COc1cccc(C2CC(=O)c3cc(N4CCCC4)ccc3N2)c1 (stereo not given)
0.0624

Which TGI is reported for this molecule? OC1CC1Sc1ccccc1 (stereo not given)
39.8

###

Test system: U251 CNS
Test summary: NCI tumour cell line growth inhibition, 48 h
Listed here: items and their measured TGI.

Molecule: Cc1nc2ccccc2c(=O)n1NC(=O)c1ccc(N)cc1
TGI: > 100 µM
--
Molecule: CC(=O)Oc1ccc2c3c1[C@H]1O[C@H]1c1cccc(c1-3)[C@@H]1O[C@H]21
TGI: 18.9 µM
--
Molecule: COc1ccc(C(=O)N2N=C(c3ccc(Br)cc3)CC2c2cn(-c3ccccc3)nc2-c2ccccc2)cc1 (configuration not stated)
TGI: > 50 µM
--
Molecule: CCOC(=O)c1cnc2c(C)cc(C)cc2c1NCCCN(C)C
TGI: 76.2 µM

Here is another molecule to look at.
Which TGI is reported for this molecule? `C(=C\c1cc(CCc2nc3ccccc3[nH]2)[nH]n1)/c1ccccc1`
> 100 µM

###

System: HCT-116 colon
Test summary: NCI tumour cell line growth inhibition, 48 h; in the data active means GI50 below about 0.43 µM; inactive means the rest
Returns: one label drawn from active, inactive

What outcome does the record of this test show for `O=C1Nc2ccccc2/C1=C/C(=N/c1nnc(-c2ccc(Cl)cc2)s1)c1ccccc1` ?
inactive

What outcome does the record of this test show for COc1ccc(C(=O)N2N=C(c3ccc(Br)cc3)CC2c2cn(-c3ccccc3)nc2-c2ccccc2)cc1 (stereo not given) ?
inactive

What outcome does the record of this test show for `COc1cc(Cl)cc(-c2nn(-c3cccc(NC(=O)c4cccc(C(F)(F)F)c4)c3)cc2-c2ccncc2)c1` ?
inactive

What outcome does the record of this test show for `Cc1cc2nc(CS)[nH]c2cc1C` ?
inactive

What outcome does the record of this test show for `CN1CCN(CCOc2ccc(-c3cnc4c(-c5cccc(F)c5F)cnn4c3)cc2)CC1` ?
inactive

What outcome does the record of this test show for `Cc1ccc(Cl)cc1Nc1nc(C(F)(F)F)ccc1C(N)=O` ?
inactive

What outcome does the record of this test show for `COc1ccccc1NC(=O)c1ccc(NC2=C(Cl)C(=O)N(Cc3ccccc3)C2=O)cc1` ?
inactive

What outcome does the record of this test show for `COC(=O)c1ccc2[nH]c(O)c(C(=Nc3ccc(N(C)C(=O)CN4CCN(C)CC4)cc3)c3cccc(OC)c3)c2c1` ?
active

What outcome does the record of this test show for `CC[C@H](C)[C@H](NC(=O)C12CC(NC)(C1)C2)C(=O)N(C)[C@H](C[C@@H](OC(C)=O)c1nc(C(=O)N[C@@H](Cc2ccccc2)C[C@H](C)C(=O)OC)cs1)C(C)C` ?
active

What outcome does the record of this test show for CCOc1cc2ncc(C#N)c(Nc3ccc(F)c(Cl)c3)c2cc1NC(=O)CC1CCSS1 (stereo not given) ?
inactive

What outcome does the record of this test show for COc1cc2c(c(OC)c1OC)-c1ccc(SC)c(=O)cc1C(CC(=O)Oc1ccc(F)cc1)C2 (stereo not given) ?
active
